Origin of values: patent US9096536B2

This section presents molecules with their documented IC50 values.
Test system: human promyelocytic leukemia cell line HL-60
Assay: Cytostatic activity in vitro, HL-60 sensitive line
Type: cell-based
Conditions: 50% inhibition of cell growth after 72 h continuous exposure; read-out: HL60 IC50

Solved entries (count: 5):
CC(=O)NCCCNc1ccc2c(=O)n(CCN(C)C)nc3c2c1C(=O)c1ccccc1-3	13 nM
CC(CNc1ccc2c(=O)n(CC(C)N(C)C)nc3c2c1C(=O)c1ccccc1-3)N(C)C (centres unmarked)	8.7 nM
Nc1ccc2c(=O)n(CCN3CCOCC3)nc3c2c1C(=O)c1ccccc1-3	2080 nM
CN(C)CCn1nc2c3c(c(NCC(=O)N(C)C)ccc3c1=O)C(=O)c1ccccc1-2	113 nM
CNc1ccc2c(=O)n(CCN(C)C)nc3c2c1C(=O)c1ccccc1-3	21 nM

Query: Answer with reported IC50 of "CN(C)CCCn1nc2c3c(c(N)ccc3c1=O)C(=O)c1ccccc1-2"
Reply: 269 nM

Query: Answer with reported IC50 of "CNCCNc1ccc2c(=O)n(CCN(C)C)nc3c2c1C(=O)c1ccccc1-3"
Reply: 0.9 nM

###

Test system: CT-DNA
Test: Interaction with isolated CT-DNA, fluorescence competition with ethidium bromide
Assay type: binding
Details: 50% decrease in fluorescence intensity of DNA-bromide ethydine complex
pIC50: −log10 of the molar value.
The threshold is inclusive: pIC50 of exactly 6 counts as true (1); values below receive false (0).

CN(C)CCCNc1ccc2c(=O)[nH]nc3c2c1C(=O)c1ccccc1-3	false (0)
CC(=O)NCCCNc1ccc2c(=O)n(CCN(C)C)nc3c2c1C(=O)c1ccccc1-3	false (0)
O=C1c2c(O)ccc(O)c2C(=O)c2c(NCCNCCO)ccc(NCCNCCO)c21 [Mitoxantrone, reference compound]	true (1)
CNc1ccc2c(=O)n(CCN(C)C)nc3c2c1C(=O)c1ccccc1-3	false (0)
CN(C)CCn1nc2c3c(c(NCCNCCO)ccc3c1=O)C(=O)c1ccccc1-2	true (1)

Query: Determine whether this molecule has pIC50 no lower than 6: "CN(C)CCn1nc2c3c(c(NCCCN)ccc3c1=O)C(=O)c1ccccc1-2"
Reply: true (1)

Query: Determine whether this molecule has pIC50 no lower than 6: "CN(C)CCCn1nc2c3c(c(N)ccc3c1=O)C(=O)c1ccccc1-2"
Reply: false (0)

Query: Determine whether this molecule has pIC50 no lower than 6: "Nc1ccc2c(=O)n(CCN3CCCCC3)nc3c2c1C(=O)c1ccccc1-3"
Reply: false (0)

Query: Determine whether this molecule has pIC50 no lower than 6: "CN(C)CCNc1ccc2c(=O)n(CCO)nc3c2c1C(=O)c1ccccc1-3"
Reply: false (0)

Query: Determine whether this molecule has pIC50 no lower than 6: "CNCCNc1ccc2c(=O)n(CCN(C)C)nc3c2c1C(=O)c1ccccc1-3"
Reply: true (1)

Query: Determine whether this molecule has pIC50 no lower than 6: O=C1c2ccccc2C(=O)c2c(NCCNCCO)ccc(NCCNCCO)c21 [Ametantrone, reference compound]
Reply: true (1)

Query: Determine whether this molecule has pIC50 no lower than 6: "CCNCCNc1ccc2c(=O)n(CCN(C)C)nc3c2c1C(=O)c1ccccc1-3"
Reply: true (1)

###

Test system: human promyelocytic leukemia cell line HL-60
Assay: Cytostatic activity in vitro, HL-60 sensitive line
Assay type: cell-based
Details: 50% inhibition of cell growth after 72 h continuous exposure; read-out: HL60 IC50
observation_type: pIC50
The scale used: pIC50 is minus the common logarithm of the concentration in molar units.

CN(C)CCn1nc2c3c(c(NCCCN)ccc3c1=O)C(=O)c1ccccc1-2	8.07

Then there is this molecule:
Query: Answer with reported pIC50 of "Nc1ccc2c(=O)n(CCN3CCCCC3)nc3c2c1C(=O)c1ccccc1-3"
Reply: 6.42

###

Tested on: human promyelocytic leukemia cell line HL-60
Test: Cytostatic activity in vitro, HL-60 sensitive line
Format: cell-based
Settings: 50% inhibition of cell growth after 72 h continuous exposure; read-out: HL60 IC50
From the text: Tables 3 and 4 show cytostatic activity in vitro of 2,6-disubstituted and 2- or 6-monosubstituted (Tab.3), and of 2,5-disubstituted-(Tab.-4) tetracyclic anthrapyridazone derivatives using leukemia cell line HL-60 and the resistant cell sublines with resistance induced by vincristine (MDR-1) or doxorubicin (MRP). […]
observation_type: IC50

Solved entries (count: 3):
CN(C)CCCNc1ccc2c(=O)[nH]nc3c2c1C(=O)c1ccccc1-3	1.15 µM
CN(C)CCn1nc2c3c(c(NCc4ccccc4)ccc3c1=O)C(=O)c1ccccc1-2	0.719 µM
CN(C)CCn1nc2c3ccccc3c3nn(CCN(C)C)c4ccc(c1=O)c2c34	0.031 µM

Query: Answer with reported IC50 of "O=C1c2ccccc2-c2nn(CCN3CCCCC3)c(=O)c3ccc(NCCNCc4ccccc4)c1c23"
Reply: 0.098 µM

Query: Answer with reported IC50 of "CCN(CC)CCNc1ccc2c(=O)n(CCN(C)C)nc3c2c1C(=O)c1ccccc1-3"
Reply: 0.019 µM
